Below is a list of entries, each paired with its recorded self-cleavage kobs at 640 uM GlcN6P value.
B1: glmS ribozyme (parent)
chain: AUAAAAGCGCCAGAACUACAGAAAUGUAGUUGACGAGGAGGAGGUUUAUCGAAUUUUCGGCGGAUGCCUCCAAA

Variants of: B1
Test: self-cleavage kobs at 640 uM GlcN6P; higher = faster cleavage; RNA array
Details: with glucosamine-6-phosphate
Variants at the floor of the assay were thinned out.

These recorded examples may help you get a feel for the data.
macromolecule sequence | self-cleavage kobs at 640 uM GlcN6P
AUAAAAGCGCCAGGACUACAGAAAUGUAGUUGACAAGGAGGAAGUUUAUCGAAUUUUCGGUGGAUGCCUCCAAA [A14G G35A G43A C61U] | < 1e-05 s⁻¹
AUAAAAGCGCCAGAACUACAGAAAUGUAGUCGAUGAGGAGGAGGUUUAUCGAAUUUUCGGCGGAUGCCUCUAAA [U31C C34U C71U] | < 1e-05 s⁻¹
AUAAAAGCGCCAGAACUACAGAAAUGUAGUUGACCAGGAGGAGGUUUAUCGAAUUUUCGGUGGAUGCCUCCAAA [G35C C61U] | < 1e-05 s⁻¹

Which self-cleavage kobs at 640 uM GlcN6P value belongs to AUAAAAGCGCCAGAACUACAGAAAUGUAGUUGACGAGGAGGAGGUGUAUCGAAUUUCCGUCGGAUGCCUCCAAA [U46G U57C G60U] ? < 1e-05 s⁻¹

Which self-cleavage kobs at 640 uM GlcN6P value belongs to AUAAAAGCGACAGAACUACAGAAAUGUAGUUGACGAGGAUGAGGUUUAUCGAAUUUUCGGCGGAUGCCUCCAAA [C10A G40U] ? < 1e-05 s⁻¹

Which self-cleavage kobs at 640 uM GlcN6P value belongs to AUAAAAGCGCCAGAACUACAGAAAUGUAGUUGAGGAGGAGGAGGUUUAUCGAAAUUUCGGCGGGUGCCUCCAAA [C34G U54A A64G] ? < 1e-05 s⁻¹

Which self-cleavage kobs at 640 uM GlcN6P value belongs to AUAAAAGAGCCAGAACUACAGAAAUGUAGUUGACCAGGAGGAGGUUUAUCGAAUUUUCGGCUGAUGCCUCCAAA [C8A G35C G62U] ? < 1e-05 s⁻¹

Which self-cleavage kobs at 640 uM GlcN6P value belongs to AUAAAAGCGCCAGAACUACAGAAAUGUAGUUGGCGGGAAGGAGGUUUAUCGAAUUUUCGGCGGAUGCCUCCAAA [A33G A36G G38A] ? < 1e-05 s⁻¹

Which self-cleavage kobs at 640 uM GlcN6P value belongs to AUAAAAGCGCCAGAACUACAGAAAUGUAGUUGACGAGGAGGAGUUUUAUCGAAUUUUCGGCAGAUGCCUCCAAA [G44U G62A] ? < 1e-05 s⁻¹

Which self-cleavage kobs at 640 uM GlcN6P value belongs to AUAAAAGCGACAGAACUACAGAAAUGUAGUUGACGAGGAGGAGGUCAAUCGAAUUUUCAGCGGAUGCCUCCAAA [C10A U46C U47A G59A] ? < 1e-05 s⁻¹

Which self-cleavage kobs at 640 uM GlcN6P value belongs to AUAAAAGCGCCAGAACUACAGAAAUGUAGUUGACGAGGAGGAGGUUUAUCGAAUUUUCGGUGGAGGCCUCCAAA [C61U U65G] ? < 1e-05 s⁻¹
